Assign activation to each entry below.
- system: Insulin-degrading enzyme (Homo sapiens)
- test-method-notes: human IDE activators in live cells, primary screen, fluorescence polarization, HEK cells, FAbeta-B substrate (AID 493087)
- details: FAbeta-B cleavage, at 5.96 µM, hits give high values, 0% vehicle, 100% cell-free pure enzyme wells
The whole screen tested about 340,000 compounds, of which about 240 (0.071%) were called active. The sample holds actives, similar compounds and a random draw of the others, so the mix is not that of the screen.
Give bare numbers, in %.

Use these answered entries as a reference point.
{"columns": ["compound", "readout-number"],
 "data": [
  ["COc1ccc(CCNC(=O)COC(=O)C2CC2C)cc1 (stereo not given)", 3.39],
  ["C=CCn1c(=O)c(C(=O)NCc2ccc3c(c2)OCO3)c(O)c2ccccc21", 3.17],
  ["COc1ccc(S(=O)(=O)N2CCN(c3cnccn3)CC2)cc1", 0.13],
  ["O=c1nc(N2CCOCC2)nc2n1CCO2", -0.31],
  ["CC1(C)CC(N2CCN(C(c3ccccc3)c3ccccc3)CC2)=CC(=[N+]2CCCCC2)C1", 0.04],
  ["O=C(O)CCc1cccnc1", 0.08]
]}

Hey, quick one: what's activation for each of these?
1. CC(C)C(NC(=O)c1c(F)cccc1F)C(=O)NNC(=O)c1ccccc1 (stereo not given)
2. COc1ccc(C(=O)NCCn2nc(C)cc2C)cc1OC1CCN(C(C)=O)CC1
3. Cc1cccc(N2CCN(C(=O)c3cc4c(=O)[nH]c5ccccc5c4n3C)CC2)c1C
4. COC(=O)Nc1ccc(S(=O)(=O)N(C)CC(F)(F)C(F)F)cc1
5. CSc1ccccc1OCc1cc(C(=O)N2C[C@H]3CC[C@H]2C3)no1
6. CC12CCCCC1=CC(=O)CC2 (stereo not given)
7. CCOC(=O)CSc1nnc(CNC(=O)c2cccs2)n1-c1cc(OC)ccc1OC

Response line:
5.51
1.62
0.68
3.58
0.59
3.28
0.94

Hey, quick one: what's activation for each of these?
1. COC(=O)c1ccc(CNC(=O)Cn2cc(C)c(=O)[nH]c2=O)cc1
2. CCCN(CC(=O)Nc1ccc(C(N)=O)cc1)CC(=O)Nc1ccccc1C

Response line:
1: 4.54; 2: 0.5

Where do these numbers come from? They come from PubChem BioAssay AID493087.
